Each recorded value in this set is attributed to patent US20220313698A1.

Target: CFTR-mediated chloride transport (Homo sapiens, UniProt P13569)
Assay: Corrector Assay B - membrane potential dye assay (enteroid cells);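 note: methyl oxonol membrane potential fluorescence followed over 15 min after switching to chloride-free buffer with forskolin, 100 µM IBMX and ivacaftor, in presence of CaCC blockers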
Settings: read-out: Corrector Assay B EC50; human intestinal enteroid cells, 18-24 h incubation; acute 10 μM forskolin + 300 nM ivacaftor
pEC50: −log10 of the molar value.

Compound	pEC50
CC1(C)CC2CC(c3ccccc3)CNc3cccc(n3)S(=O)(=O)NC(=O)c3ccc(-n4ccc(OCCC5(C(F)(F)F)CC5)n4)nc3N1C2 (single isomer, unassigned) [Compound 389]	> 6.00
CC1(C)C[C@@H]2CCC(c3ccccc3)Nc3cccc(n3)S(=O)(=O)NC(=O)c3cccnc3N1C2 (single isomer, unassigned) [Compound 288]	5.52 to 6.00
CC1(C)CC2CN1c1nc(-n3ccc(OCCC4(C(F)(F)F)CC4)n3)ccc1C(=O)NS(=O)(=O)c1cccc(n1)NCCC2c1ccccc1 (single isomer, unassigned) [Compound 386]	> 6.00
CC1(C)C[C@@H]2CCCN(CCCCCC#N)c3cccc(n3)S(=O)(=O)NC(=O)c3ccc(-n4ccc(OCCC5(C(F)(F)F)CC5)n4)nc3N1C2	> 6.00
CC1(C)C[C@@H]2CCC(c3cncnc3)Nc3cccc(n3)S(=O)(=O)NC(=O)c3ccc(-n4ccc(OCCC5(C(F)(F)F)CC5)n4)nc3N1C2 (single isomer, unassigned) [Compound 375]	> 6.00
CC1(C)C[C@@H]2CCCN(CCC(N)=O)c3cccc(n3)S(=O)(=O)NC(=O)c3ccc(-n4ccc(OCCC5(C(F)(F)F)CC5)n4)nc3N1C2	> 6.00
CC1(C)CC2CN1c1nc(-n3ccc(OCCC4(C(F)(F)F)CC4)n3)ccc1C(=O)NS(=O)(=O)c1cccc(n1)NCCC2c1ccccc1 (single isomer, unassigned) [Compound 385]	> 6.00
CC1(C)C[C@@H]2CCCN(Cc3nn[nH]n3)c3cccc(n3)S(=O)(=O)NC(=O)c3ccc(-n4ccc(OCCC5(C(F)(F)F)CC5)n4)nc3N1C2	5.52 to 6.00
